# test-system: PAR2 (HT-29 cells) (Homo sapiens, UniProt P55085)
# Construct: host or cells: HT-29
# Sequence (P55085 26-397): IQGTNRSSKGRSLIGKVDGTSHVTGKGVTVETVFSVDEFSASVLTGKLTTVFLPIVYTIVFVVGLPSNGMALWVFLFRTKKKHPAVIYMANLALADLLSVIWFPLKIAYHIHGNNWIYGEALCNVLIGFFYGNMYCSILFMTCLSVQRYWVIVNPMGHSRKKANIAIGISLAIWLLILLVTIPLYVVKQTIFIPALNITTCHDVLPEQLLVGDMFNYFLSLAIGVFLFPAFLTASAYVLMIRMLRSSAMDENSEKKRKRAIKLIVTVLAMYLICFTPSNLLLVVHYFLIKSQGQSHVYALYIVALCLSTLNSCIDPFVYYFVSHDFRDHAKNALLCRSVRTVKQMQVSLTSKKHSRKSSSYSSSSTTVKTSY
# procedure-details: Ca FLIPR TETRA assay, ANTAGONIST mode, activator 3.1 U/mL trypsin
# Assay type: cell-based
# condition-parameters: HT-29 cells, activator 3.1 U/mL trypsin; maximal antagonist concentration per Method (A: 0.1, 1 or 2 μM; B: 50 μM)
Quick list: log10(IC50) per entry.
Could you please treat all values as log10 of IC50 in nM?

{"chem-smiles": "CC(C)(C)c1cc(-c2ccc(Cl)c(F)c2)nc2cc(C(=O)N3CCN(c4cn[nH]c4)C(=O)C3(C)C)oc12", "log10(IC50)": 0.64}

query: Requested field: log10(IC50). Item: `CC(C)(C)c1cc(-c2ccc(F)cc2)nc2cc(C(=O)N3CCN(C(=O)C4(C(N)=O)CC4)CC3(C)C)oc12`
result: 1.43

query: Param item: `CC(C)(C)c1cc(-c2ccc(Cl)c(F)c2)nc2cc(C(=O)N3CCN(C(=O)c4ncn[nH]4)CC3(C)C)oc12`
result: 0.20

query: Param item: `CO[C@H](C)C(=O)N1CCN(C(=O)c2cc3nc(-c4ccc(F)cc4)cc(C(C)C)c3o2)C(C)(C)C1`
result: 2.04

query: Param item: `CC(C)(CC(=O)N1CCN(C(=O)c2cc3nc(-c4ccc(F)cc4)cc(C(C)(C)C)c3o2)C(C)(C)C1)C(=O)O`
result: 0.00

query: Param item: `CC1(c2cc(-c3ccc(F)cc3)nc3cc(C(=O)N4CCN(C(=O)C5(C(F)(F)F)CC5)CC4(C)C)oc23)CC1`
result: 0.66

query: Param item: `CCC(C)(C)C(=O)N1CCN(C(=O)c2cc3nc(-c4ccc(F)cc4)cc(C4(C)CC4)c3o2)C(C)(C)C1`
result: 0.78

query: Param item: `CC1(C)CCC(c2cc(C(C)(C)C)c3oc(C(=O)N4CCN(c5cn[nH]c5)CC4(C)C)cc3n2)CC1`
result: 1.23

query: Param item: `CC(C)(C)c1cc(C2CCC(Cl)(Cl)CC2)nc2cc(C(=O)N3CCNC(=O)C3(C)C)oc12`
result: 1.64

====

Quick list: pIC50 per entry.
# test-system: PAR2 (HT-29 cells) (Homo sapiens, UniProt P55085)
# Construct: host or cells: HT-29
# procedure-details: Ca FLIPR TETRA assay, ANTAGONIST mode, activator 8 μM SLIGKV
# Format: cell-based
# condition-parameters: HT-29 cells, activator 8 μM SLIGKV; maximal antagonist concentration per Method (A: 0.1, 1 or 2 μM; B: 50 μM)
Please report pIC50 as the negative decimal logarithm of the molar concentration, giving only the number.

{"compound": "CC(C)(C)c1cc(C2CCC(F)(F)CC2)nc2cc(C(=O)N3CCN(C(=O)c4cnccn4)CC3(C)C)oc12 [Example I-230]", "pIC50": 7.09}

query: Requested field: pIC50. Item: CC(C)C[C@@H](O)C(=O)N1CCN(C(=O)c2cc3nc(-c4ccc(F)cc4)cc(C4(C)CC4)c3o2)C[C@@H]1C [Example I-113]
result: 7.96

query: Param item: CN1CCN(C(=O)c2cc3nc(-c4cccc(Cl)c4)cc(C(C)(C)C)c3o2)C(C)(C)C1=O [Example I-242]
result: 7.72

query: Param item: CC(C)(C)c1cc(-c2ccc(Cl)c(F)c2)nc2cc(C(=O)N3CCN(C(=O)c4ccc(C(=O)O)nc4)CC3(C)C)oc12 [Example I-252]
result: 6.92

query: Param item: CC1(C)CCC(c2cc(C(C)(C)C)c3oc(C(=O)N4CCN(C(=O)[C@H]5C[C@@](C)(O)C5)CC4(C)C)cc3n2)CC1 [Example I-228]
result: 9.05

query: Param item: CC(C)(C)C[C@@H](O)C(=O)N1CCN(C(=O)c2cc3nc(-c4ccc(F)cc4)nc(C4(C)CC4)c3o2)C(C)(C)C1 [Example I-129]
result: 6.60
